ASSAY REMARKS: yeast display, Sf9 membrane polyspecificity reagent, FACS + sequencing; frameworks hold sequencing errors
PROPERTY: polyreactivity (PSR sort gate)

QDQLVESGGGLVQAGGSLRLSCAASGRTFVGYAMGWYRQAPGKERELVAAITSGGRTNYADSVKGRCTISRDNAKNTVYLQMTSLKPEDTAVYYCNARTRHRGQIALDYWGQGTQVTVSS high polyreactivity
QFQLVESGGGLLQAGGSLRLSCAASGFTFSYNAKGWYRKAPGKERELVAAISSSGGSTYYADSVKGRFTISRDNAKNTVYLQMNILKPEDPSVYYCAVPYLTLYGRSYDYWGQGTQVTVSS high polyreactivity
QVQLVESGGGLVQAGGSLRLSCAASGFIFLYYAMGWYRQAPGKERELVAAITTRGGRTYYADSVKGRFTISRDNAKNTVYLQMNSLKPEDTAVYYCAVQVSWSYYRYGYWGQGTQVTVSS low polyreactivity
QVQLVESGGGLVQAGGSLRLSCAASGSIFRRYAMGWYRPAPGTERELVAAISYSGGSTYYADSVKGRFTISRDNAKNTVYLQMNSLKPEDTAVYYCAADESRYDYWGQGTQVTVSS high polyreactivity

Record summary for QVQLVESGGGLVQAGGSLRLSCAASGSIFSYYAMGWYRQAPGKERELVAAITVRGGSTYYADSVKGRFTISRDNAKNTVYLQMNSLKPEDTAVYYCAADWLDESFSYGPYYYWGQGTQVTVSS : reported polyreactivity (PSR sort gate) = low polyreactivity

// recorded polyreactivity (PSR sort gate) for QVQLVESGGGLVQAGGSLRLSCAASGFTFTYNAMGWYRQAPGKERELVAGITLGSRTNYADSVKGRFTISRDNAKNTVYLQMNSLKPEDTAVYYCAVRYYGGYGYWGQGTQVTVSS : high polyreactivity

So, QVQLVESGGGLVQAGGSLRLSCAASGGIFSVYAMGLYRQAPGKERELVASITVSGGSTSYADSVKGRFTISRDNAKNTVYLQMNSLKPEDTAVYYCNTDFGQAHTLSWYEDMDYWGQGTQVTVSS ? Its polyreactivity (PSR sort gate) was low polyreactivity

# sequence QVQHVESGGGLVQAGGSLRLSCAASGFIFTAYAMGWYRQAPGKERELVAGIRSGSSTYYADSVKGRFTISRDNAMNTVYLQMNSLKPEDTAVYYCNAEKYNFIYAYEYWGQGTQVTVSS ; its polyreactivity (PSR sort gate) = low polyreactivity

Form: sequence = QVQLVESGGCLVQSGGRLRLSCAASGRIFYPYVMGWYRQAPGKEREFVAAITRSGGSTNADSVKGLFTISRDNAKNTVYLLLNSLKPEDTAVYYCARRVNRRYPFYQRDYWGQGTQVTVSS ; polyreactivity (PSR sort gate) = high polyreactivity

# polyreactivity (PSR sort gate) (sequence: QVQLVESGGGLVQAGGSLRLSCAASGFIFSGYAMGWYRQAPGKERELVAAITWSGSNTFYADSVKGRFTISRDNPKNTVYLQMNSLKPEDTAVYYCNGVSKYIRSDYYYWGQGTQVTVSS ) is high polyreactivity

In plain terms, QVQLVESGGGLVQAGGSLRLSCAASGITFQNYAMGWYRQAPGKERELVAAITRSGGRTYYADSVKGRFTISRDNAMNTVYLQMNSLKPEDTAVYYCAVYGIGRPYWYDYWGQGTQVTVSS has a documented polyreactivity (PSR sort gate) of high polyreactivity

Entry QVQLVESGGGLVQAGGSLRLSCAASGSTFRYNAMGWYRQAPGKERELVAGISYRGGTTYYADSVKGRFTISRDNAKNTVYLQMNSLKPEDTAVYYCAAAASSPGGWFYYWGQGTQVTVSS ; polyreactivity (PSR sort gate) = high polyreactivity

Sure, the documented polyreactivity (PSR sort gate) for QVQLVESGAGLVQAGGSLRLICAASGLTFIYYAMGWYRQAPGKERELVAAISVSGGSTYYADSVKGRFTISRDNAKNTVYLQMNRLQREDTAVYYCAADWLVHKPRYQYSFDFWGQVTQVTVSS is low polyreactivity

The value of polyreactivity (PSR sort gate) measured for the sequence QVQLVESGGGLVQAGRSLRLSCAASGNTLRPNGMGWYRPAPGKERELVAAISSGGSTYYADSVKGRFTISRDNAKNTVYLQMNSLKPEDTAVYYCAAEYWYDYWGQGTQVTVSS turned out to be low polyreactivity

response.value for QVQLVESGGGLVQAGGSLRLSCAASGRIFQWNAMGWYRQAPGKERELVAAITYSGSSTNYADSVKGRFTISRDNAKNTVYLQMNSLKPEDTAVFYCNRDFYQYLSYFWHYGYWGQGTQVTVSS (field: polyreactivity (PSR sort gate)) = low polyreactivity

meta.source: the nanobody polyreactivity screen of Harvey et al. (2022)
